- assay_overview: Plasma pharmacokinetic study in rats
- Format: in vivo, rat
- condition_context: rat, plasma, po, 24.4 umol/kg, rat plasma, i.g. 24.4 μmol/kg, n = 6
Consider the following molecules; for each one, report its Tmax.

Fill in: Tmax of C[C@@]1(O)CC[C@H]2[C@H](CC[C@@H]3[C@@H]2CC[C@]2(C)[C@@H](C(=O)Cn4cnn(-c5ccnc(OCC(F)(F)F)c5)c4=O)CC[C@@H]32)C1 is ___
~3.7 h

Proceed to C[C@@]1(O)CC[C@H]2[C@H](CC[C@@H]3[C@@H]2CC[C@]2(C)[C@@H](C(=O)Cn4cc(C#N)cn4)CC[C@@H]32)C1
~1.2 h

###

- assay_overview: Plasma pharmacokinetic study in rats
- Type: in vivo, rat
- condition_context: po, 24.4 umol/kg; rat plasma, i.g. 24.4 μmol/kg, n = 6
property_measured: Cmax (nM)
Field: numeric (nM). Do not append units.

Fill in: Cmax of C[C@@]1(O)CC[C@H]2[C@H](CC[C@@H]3[C@@H]2CC[C@]2(C)[C@@H](C(=O)Cn4cnn(-c5ccnc(OCC(F)(F)F)c5)c4=O)CC[C@@H]32)C1 is ___
3600

Proceed to C[C@@]1(O)CC[C@H]2[C@H](CC[C@@H]3[C@@H]2CC[C@]2(C)[C@@H](C(=O)Cn4cc(C#N)cn4)CC[C@@H]32)C1
2280

###

- assay_overview: Liver microsome metabolic stability (HLM)
- Format: in vitro ADME, human
- Parameters: unit not given here
- condition_context: pH 7.4; human liver microsomes
- Excerpt: […] To evaluate the metabolic stability of compounds S1–S15 and Zuranolone in RLM and HLM, we designed the following in vitro liver microsome metabolism assay protocol. […] After centrifuging the mixture, we analyzed the supernatant using UPLC-MS/MS. […]
property_measured: microsomal CLint at 1 μmol/L
Respond with the number and no other words.

Fill in: microsomal CLint at 1 μmol/L of C[C@@]1(O)CC[C@H]2[C@H](CC[C@@H]3[C@@H]2CC[C@]2(C)[C@@H](C(=O)Cn4cnn(-c5ccnc(OCC(F)(F)F)c5)c4=O)CC[C@@H]32)C1 [S9] is ___
9000

###

- assay_overview: Plasma pharmacokinetic study in rats
- Format: in vivo, rat
- condition_context: iv, 6.1 umol/kg; rat plasma, i.v. 6.1 μmol/kg, n = 6
property_measured: C0 (µM)
Field: numeric (µM). Do not append units.

Fill in: C0 of C[C@@]1(O)CC[C@H]2[C@H](CC[C@@H]3[C@@H]2CC[C@]2(C)[C@@H](C(=O)Cn4cnn(-c5ccnc(OCC(F)(F)F)c5)c4=O)CC[C@@H]32)C1 is ___
2.86

Proceed to C[C@@]1(O)CC[C@H]2[C@H](CC[C@@H]3[C@@H]2CC[C@]2(C)[C@@H](C(=O)Cn4cc(C#N)cn4)CC[C@@H]32)C1
3.43

###

- tested_on: CYP3A4 (Homo sapiens, UniProt P08684)
- Construct: tissue XenoTech; host or cells: pooled human liver microsomes
- Sequence (P08684 whole entry): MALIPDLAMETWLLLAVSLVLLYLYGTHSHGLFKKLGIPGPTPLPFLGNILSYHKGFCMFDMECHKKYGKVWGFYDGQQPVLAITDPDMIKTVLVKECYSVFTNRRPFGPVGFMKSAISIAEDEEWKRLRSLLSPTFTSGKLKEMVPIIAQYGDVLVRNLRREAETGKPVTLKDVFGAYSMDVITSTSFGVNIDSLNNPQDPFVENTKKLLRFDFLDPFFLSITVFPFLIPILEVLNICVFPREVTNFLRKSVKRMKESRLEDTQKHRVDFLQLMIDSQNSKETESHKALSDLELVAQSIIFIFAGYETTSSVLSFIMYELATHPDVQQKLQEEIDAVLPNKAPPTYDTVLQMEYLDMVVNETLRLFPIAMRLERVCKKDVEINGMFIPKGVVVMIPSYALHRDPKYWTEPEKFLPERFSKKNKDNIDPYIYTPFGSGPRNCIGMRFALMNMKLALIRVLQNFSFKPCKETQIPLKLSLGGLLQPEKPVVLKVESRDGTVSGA
- assay_overview: Human liver CYP inhibition assay (cocktail, pooled HLM)
- Format: in vitro ADME
- condition_context: human liver CYP isoenzymes, pooled HLM; read-out: CYP IC50: 3A4
property_measured: IC50

Fill in: IC50 of C[C@@]1(O)CC[C@H]2[C@H](CC[C@@H]3[C@@H]2CC[C@]2(C)[C@@H](C(=O)Cn4cnn(-c5ccnc(OCC(F)(F)F)c5)c4=O)CC[C@@H]32)C1 [S9] is ___
> 30 µM
